Collected TGI values appear next to each entry.
- System: HOP-62 NSCLC
- Assay procedure: NCI tumour cell line growth inhibition, 48 h
Property: TGI

>>> recorded_result("Cc1ccc(NN=NCCCCN)cc1")
"> 100 µM"
>>> recorded_result("c1ccc2c(c1)nc1n2CCCn2ccnc2-1")
"> 100 µM"
>>> recorded_result("CC(C)(C)c1cc(-c2cc(C(C)(C)C)n(-c3ccccc3)n2)nn1-c1ccccc1")
"> 100 µM"
>>> recorded_result("COC1CC(OC2C(C)OC(OC3C(C)OC(OC4C(O)CC(O[C@H]5CC[C@@]6(C)C(=CC[C@]7(O)[C@@H]6C[C@@H](OC(=O)/C=C/c6ccccc6)[C@@]6(C)[C@]7(O)CC[C@@]6(O)C(C)=O)C5)OC4C)CC3OC)CC2OC)OC(C)C1O (stereo not given in full)")
"> 6.25 µM"
>>> recorded_result("O/C(=C\\c1nc2ccccc2nc1/C=C(\\O)c1ccc(Cl)cc1)c1ccccc1")
"> 100 µM"

Each recorded value in this set is attributed to PubChem BioAssay (NCI).
